Data origin: ChEMBL document CHEMBL6071182

- methodDescription: Solubility in compound in FassGF
- Assay type: physicochemical
measuredParameter: solubility (µM)

- cpdSmiles: "Cc1cc(NC(=O)c2ccc(NS(=O)(=O)CCO)cc2C2=CCC3(CC2)CC3)nc(N2CCC(F)(F)CC2)c1"
  observedResult: 3.3

###

- methodDescription: Plasma protein binding in dog
- Assay type: ADME, cell-free, Canis lupus familiaris
- experimentalConditions: read-out: PPB (converted)

- cpdSmiles: "Cc1cc(NC(=O)c2ccc(NS(=O)(=O)CCO)cc2C2=CCC3(CC2)CC3)nc(N2CCC(F)(F)CC2)c1"
  fraction unbound: 0.0007

###

- methodDescription: AUC in Beagle dog at 2 mg/kg, po and 1 mg/kg, iv
- Format: ADME, organism-based, Canis lupus familiaris
- experimentalConditions: in vivo
measuredParameter: AUC (ng·h/mL)

- cpdSmiles: "Cc1cc(NC(=O)c2ccc(NS(=O)(=O)CCO)cc2C2=CCC3(CC2)CC3)nc(N2CCC(F)(F)CC2)c1"
  measuredParameter: "AUC"
  observedResult: 11500
